Reference source for all entries: patent US20220177587A1

Assay Target: human CTLA-4 (human) (UniProt P16410)
Sequence (P16410 36-223): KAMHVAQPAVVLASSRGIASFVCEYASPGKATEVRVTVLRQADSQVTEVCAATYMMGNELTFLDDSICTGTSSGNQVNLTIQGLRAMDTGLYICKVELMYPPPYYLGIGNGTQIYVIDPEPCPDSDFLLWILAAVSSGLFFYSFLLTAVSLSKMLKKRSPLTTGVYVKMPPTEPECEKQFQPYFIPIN
Experiment Description: flow cytometry, CHO/CTLA4 cells; MFI over CD80 WT IgV-Fc
Quantity Measured: Fold change to WT CD80 (fold)

# Binder, Fold change to WT CD80 (fold)
measured = [
    ("variant CD80 IgV-Fc (inert) H18V/A26P/E35D/M47L/V68M/A71G (Fc fusion) VIHVTKEVKEVATLSCGVNVSVEELPQTRIYWQKDKKMVLTMMSGDLNIWPEYKNRTIFDITNNLSIMILGLRPSDEGTYECVVLKYEKDAFKREHLAEVTLSVKAD", 11.7),
    ("variant CD80 IgV-Fc (inert) H18C/A26P/E35D/M47L/V68M/A71G (Fc fusion) VIHVTKEVKEVATLSCGCNVSVEELPQTRIYWQKDKKMVLTMMSGDLNIWPEYKNRTIFDITNNLSIMILGLRPSDEGTYECVVLKYEKDAFKREHLAEVTLSVKAD", 16.9),
    ("variant CD80 IgV-Fc (inert) H18I/A26P/E35D/M47V/V68M/A71G (Fc fusion) VIHVTKEVKEVATLSCGINVSVEELPQTRIYWQKDKKMVLTMMSGDVNIWPEYKNRTIFDITNNLSIMILGLRPSDEGTYECVVLKYEKDAFKREHLAEVTLSVKAD", 15.8),
]
